Assay: NCI Yeast Anticancer Drug Screen. Data for the cln2 rad14 strain (AID 165);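 note: 0% = growth equal to vehicle treated cultures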
Conditions: S. cerevisiae cln2 rad14 strain, at 50.0 µM, stronger effect = higher value
About 79,000 compounds went through this panel and 15% of them were active in at least one assay; those are over-represented in the sample as a whole.
EXPERIMENTAL READOUT: growth inhibition (%)
Could you give me the number in %? Just the number is fine.

What value of measured growth inhibition is listed for Clc1nc(C(Cl)Cl)nc2ccccc12 ?
2.9

Okay, and Cc1c(C(=O)O)c2cc3ccccc3cc2c(=O)n1C ?
-40.6

Okay, and O=C(CCl)Nc1cc(Cl)c(Cl)cc1Cl ?
2.75

Okay, and C=CC1(C)C(C)=C(C)C(C)=C1C ?
18

Okay, and Nc1ccc(N2CCN(c3ccc(N)cc3)CC2)cc1 ?
10.2

Okay, and CC(C)NC(=O)OCc1c(COC(=O)NC(C)C)c(S(=O)(=O)c2ccccc2)n2c1CCC2 ?
4.7

Okay, and CCCCSCCOC(=O)C1C2CCC(O2)C1C(=O)O (configuration not stated) ?
13.4

Okay, and CCOC(COc1ccc2ccccc2c1)OCC ?
-55.7

Okay, and CC(=O)O[C@@H]1CC[C@@]2(C)C(=O)C34C[C@@]5(C)C([C@@H](C)CCCC(C)C)CCC5(C)[C@](O)(O3)C(=O)[C@H]4C2C1(C)C (some centres not stated) ?
1.8

Okay, and O=c1cn[nH]c(=O)[nH]1 ?
10.8

Okay, and CCOC(=O)/C=C\[C@H]1OC(C)(C)O[C@H]1[C@H](O)[C@H]1COC(C)(C)O1 ?
38

Okay, and O=C(NCCCCC[N+](CCCCCNC(=O)c1ccccc1)(CCCCCNC(=O)c1ccccc1)CCCCCNC(=O)c1ccccc1)c1ccccc1 ?
-2.2

* * *

Experiment: NCI Yeast Anticancer Drug Screen. Data for the rad50 strain (AID 155);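 note: 0% = growth of vehicle-only cultures of the same strain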
Conditions: S. cerevisiae rad50 strain growth inhibition; at 50.0 µM
The panel holds about 79,000 compounds, 15% with a hit somewhere; the sample as a whole holds those more often. Active and inactive are the calls of the source. Cut-off read from the data, not from the text of the source: active = growth inhibition above about 70%; inactive = the rest.
Answer with one of the outcomes active, inactive

Please share the test call associated with O=S(=O)(c1ccccc1)c1cccc2c1NCCC2 .
inactive

Okay, and CC(C)Cc1ccc(C(C)CC2=CCC(CN(C)C)C2=O)cc1 (configuration not stated) ?
active

Okay, and O=c1cc(CC2(O)CCCCC2)c2ccccc2[nH]1 ?
inactive

Okay, and Nc1ccc(Cn2cnc3c(=O)[nH]cnc32)cc1 ?
inactive

Okay, and CCC/C=C/C=C/C1CC(O)C(O)C(=O)C1CO (configuration not stated) ?
inactive

Okay, and C1=CCSC(Nc2ccccc2)=NC1 ?
inactive

Okay, and O=c1[nH]c(-c2ccc(Cl)cc2)cs1 ?
inactive

Okay, and CCOC(=O)/C(C#N)=N\Nc1ccccc1 ?
inactive

Okay, and COc1ccc2[nH]c3c(c2c1)[C@H](c1ccccc1)C[C@@H]1C(=O)N(c2ccccc2)C(=O)[C@H]31 ?
inactive

Okay, and COC(=O)C(=O)C(C(=O)C=C(C)C)c1nc2n(c1O)C(=N)N=N2 (configuration not stated) ?
inactive

Okay, and Cc1cccc(C)c1NC(=O)C(=O)/C(=C(\N)c1ccccc1)c1ccccc1 ?
inactive

Okay, and Cc1ccc2sc3cc(=O)cc(C)c-3nc2c1 ?
inactive

* * *

Assay: NCI Yeast Anticancer Drug Screen. Data for the sgs1 mgt1 strain (AID 161);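 note: 0% = growth of cultures given vehicle only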
Conditions: S. cerevisiae sgs1 mgt1 strain, at 50.0 µM, stronger effect = higher value
Description: Growth inhibition of yeast strains with defined genetic alterations is measured as a screen for potential anti-cancer activity. Selected strains with alterations in DNA damage repair or cell cycle control were exposed to compounds and growth inhibition was measured relative to vehicle treated controls. The strain used in this assay is sgs1 mgt1
About 79,000 compounds went through this panel and 15% of them were active in at least one assay; those are over-represented in the sample as a whole.
Response key: met means growth inhibition >= 10%; not met means growth inhibition < 10%.

Is growth inhibition for CN=C(NC)c1ccc(Cl)c(Cl)c1 at or above 10%?
not met

Okay, and CCO/C=C1/N=C(c2ccc3ccccc3c2)OC1=O ?
met

Okay, and COc1cc(C(c2cc3c(cc2O)OCO3)N2CCCC2)cc(OC)c1OC (configuration not stated) ?
not met

Okay, and O=C1CC(O)(c2ccccc2)C(c2ccccc2)=C1c1ccccc1 (configuration not stated) ?
met

Okay, and O=C1C2C(C(=O)N1c1ccccc1)C1(c3cccnc3)NC(=O)C2(Cc2cccnc2)c2ccccc21 (configuration not stated) ?
not met

Okay, and CC[N+](C)(CC)Cc1ccccc1[N+](=O)[O-] ?
not met

Okay, and CCOC(=O)C(C#N)C1CCCC(C)CC1 (configuration not stated) ?
not met

Okay, and OC(Cc1cccnc1)(c1ccccc1)c1ccccc1 ?
not met

Okay, and O=C(CCC(=O)Nc1cc(Cl)ccc1Cl)CC(=O)c1ccc(Cl)cc1 ?
met

Okay, and OCc1c(-c2ccccc2)oc(-c2ccccc2)c1CN1CCOCC1 ?
not met

Okay, and Cc1cccc(-c2c3ccccc3cc3c2ccc2ccccc23)c1 ?
not met

Okay, and CC(=O)Nc1cccc(O)c1 ?
met

* * *

Test: NCI Yeast Anticancer Drug Screen. Data for the mlh1 rad18 strain (AID 175)
Conditions: S. cerevisiae mlh1 rad18 strain growth inhibition; at 50.0 µM; stronger effect = higher value
About 79,000 compounds went through this panel and 15% of them were active in at least one assay; those are over-represented in the sample as a whole.
I'd be grateful if you could share measured growth inhibition for these entries.
Could you give me the number in %? Just the number is fine.

What value of measured growth inhibition is listed for CC(Oc1ccc(OCC2CCCCC2)cc1)C(=O)OCC(=O)c1ccc(-c2ccccc2)cc1 (stereo not given) ?
-11.3

Okay, and Oc1cccc2nc3ccccc3cc12 ?
9.6

Okay, and CC1(C)OCC(C(OC(=O)c2ccc([N+](=O)[O-])cc2)C(OC(=O)c2ccc([N+](=O)[O-])cc2)C2COC(C)(C)O2)O1 (stereo not given) ?
20.4

Okay, and CCCCC1(N=[N+]=[N-])C(=O)c2cccc3c2N(CCC3)C1=O (stereo not given) ?
61.5

Okay, and COc1ccc(/C=N/N2CN(C(C)C(=O)O)C(O)(CCl)N=C2N)cc1OC (stereo not given) ?
-1.5

* * *

I'd be grateful if you could share measured growth inhibition for these entries.
Assay: NCI Yeast Anticancer Drug Screen. Data for the cln2 rad14 strain (AID 165);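 note: 0% = growth equal to vehicle treated cultures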
Settings: S. cerevisiae cln2 rad14 strain, at 50.0 µM, stronger effect = higher value
Compounds without any hit were thinned out: in the full panel of roughly 79,000, 15% have a hit. The source made the active and inactive calls. Rule as the data show it: active = growth inhibition above about 70%; inactive = the rest.

What value of measured growth inhibition is listed for O=C(c1ccccc1)[C@@H]1C[C@H](Sc2ccccc2)c2cc(Cl)ccc2N1 ?
23.8% (inactive)

Okay, and COc1ccccc1/C=C(\C)C(=O)O ?
0.05% (inactive)

Okay, and Cc1ccc(S(=O)(=O)OC(c2ccccc2)c2ccccc2)cc1 ?
-17.4% (inactive)

Okay, and C[C@@H]1O[C@]2(O)[C@@H]3CCCN3S(=O)(=O)CCN2C1=O ?
17.7% (inactive)

Okay, and COc1nc2cc3c(cc2n2cccc12)oc1ccccc13 ?
12.2% (inactive)

Okay, and CCOC(=O)/C=C1\CCCC12OCCO2 ?
19.2% (inactive)

* * *

I'd be grateful if you could share measured growth inhibition for these entries.
Test: NCI Yeast Anticancer Drug Screen. Data for the cln2 rad14 strain (AID 165);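 note: 0% = growth equal to vehicle treated cultures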
Details: S. cerevisiae cln2 rad14 strain, at 50.0 µM, stronger effect = higher value
This is part of a sample that, as a whole, favours compounds with a hit. Of some 79,000 tested, about 15% had one in any assay.
Could you give me the number in %? Just the number is fine.

What value of measured growth inhibition is listed for O=C(O)c1c(Br)c(Br)c(Br)c(Br)c1C(=O)Nc1ccc(Cl)c(Cl)c1 ?
-11.1

Okay, and N=C(CNC(=O)OCc1ccccc1)N1CCCC1C(=O)O (stereo not given) ?
-1.7

Okay, and COc1ccccc1NC(=O)C(CC(C(=O)Nc1ccccc1OC)/C(C)=N/NC(=O)c1ccccc1O)/C(C)=N/NC(=O)c1ccccc1O (stereo not given) ?
21.9

Okay, and CC12CCC3c4ccc(OC(=O)c5ccc([N+](=O)[O-])cc5)cc4CCC3C1CCC2=O (stereo not given) ?
5.75

Okay, and COC(=O)c1s/c(=N\C(=S)N(C)C)n(-c2ccc(Cl)cc2)c1C(=O)OC ?
-40.1

* * *

I'd be grateful if you could share measured growth inhibition for these entries.
Assay: NCI Yeast Anticancer Drug Screen. Data for the mec2-1 strain (AID 157)
Conditions: S. cerevisiae mec2-1 strain, at 50.0 µM, stronger effect = higher value
Method: Growth inhibition of yeast strains with defined genetic alterations is measured as a screen for potential anti-cancer activity. Selected strains with alterations in DNA damage repair or cell cycle control were exposed to compounds and growth inhibition was measured relative to vehicle treated controls. The strain used in this assay is mec2-1
The panel holds about 79,000 compounds, 15% with a hit somewhere; the sample as a whole holds those more often.
Could you give me the number in %? Just the number is fine.

What value of measured growth inhibition is listed for COCCCN(Cc1cc(OC)c(OC)c(OC)c1)C(=S)Nc1cccc(SC)c1 ?
-19.4

Okay, and CCc1cc(Cc2cc(CC)c(NC(=O)C(=O)CC(=O)c3sc(-c4cccnc4)nc3C)c(CC)c2)cc(CC)c1NC(=O)C(=O)CC(=O)c1sc(-c2cccnc2)nc1C ?
-26.9

Okay, and COc1c(C=O)c2c(c(OC)c1OC)-c1ccc(OC)c(=O)cc1[C@@H](NC(C)=O)CC2 ?
-9.6

Okay, and Cc1ccccc1/C=N/Nc1ccc([N+](=O)[O-])cc1[N+](=O)[O-] ?
13.4

Okay, and CC1(O)CCC2CC1C2(C)CO (configuration not stated) ?
7.45

Okay, and SCCNCc1ccco1 ?
-68.5

Okay, and CN1CCN=C(C(=O)O)C=C1c1ccccc1O ?
26.7

Okay, and O=C(OCc1ccccc1)N1CCCCC1 ?
-2.65

Okay, and COc1cc(/C=C2/Cc3ccccc3C2=O)ccc1O ?
24.1

Okay, and CC1=CN(c2ccccc2)S2=C1c1sc3c(c1N2c1ccc(Br)cc1)CCCC3 (configuration not stated) ?
-21.9

Okay, and O=C(NCC1=NCCN1)c1ccccc1 ?
-2.7

Okay, and CN(/N=C/c1ccccn1)C1=NCCCN1 ?
-22
